- Study target: His-TrxA (His-tagged thioredoxin 1) (UniProt P0AA25)
- Test method notes: dot blot (nitrocellulose filter binding)
- Reported conditions: 5 mM Mg2+; Dot blot/aptamer blot: 20 mM Tris-HCl, 100 mM NaCl, 5 mM MgCl2, 0.1% BSA (pH not given), 50 nM aptamer in dot blot (membranes equilibrated at 4 C), blots 1 h …
Recorded metric: pKd
Give bare numbers, as −log10 of the molar value.

// map ATACGACTCACTATTAGGGATGTCCACCATATAGATCGATTTAAGTCCCTCGTTATTAATGCTAGACTACTGACTACAA [H1] to recorded pKd (system: His-TrxA (His-tagged thioredoxin 1) (UniProt P0AA25))
6.76

###

- Study target: GST (glutathione S-transferase tag) (UniProt P08515)
- Test method notes: dot blot (nitrocellulose filter binding)
- Reported conditions: 5 mM Mg2+; Dot blot/aptamer blot: 20 mM Tris-HCl, 100 mM NaCl, 5 mM MgCl2, 0.1% BSA (pH not given), 50 nM aptamer in dot blot (membranes equilibrated at 4 C), blots 1 h …
Recorded metric: pKd
Numbers only, as −log10 of the molar value.

Consider the sequence shown here: ATACGACTCACTATTAGGGACAAAGCTGACAACCCTTTCATAATCTAACTACATTTATGTGCTAGACTACTGACTAC [G1] What is its recorded pKd?
7.23

###

- System: MBP (maltose-binding protein tag)
- Test method notes: dot blot (nitrocellulose filter binding)
- Reported conditions: 5 mM Mg2+; Dot blot/aptamer blot: 20 mM Tris-HCl, 100 mM NaCl, 5 mM MgCl2, 0.1% BSA (pH not given), 50 nM aptamer in dot blot (membranes equilibrated at 4 C), blots 1 h …
Recorded metric: Kd
The answer should read as a number with its unit following.

Consider the sequence shown here: ATACGACTCACTATTAGGGACCACATAAACATGCATCGCTCAATAACGGGATATTGTTGTGCTAGACTACTGACTACAA [M1] What is its recorded Kd?
86 nM
